Values from patent US12491180B2

- System: Klebsiella pneumoniae 5846
- method-notes: MIC, solid dilution method
- Assay type: cell-based
- condition-summary: K.p 5846, CRE clinical isolate, MHA agar, 37° C., 16-20 hours, read-out: MIC
readout-name: MIC (µg/mL)

{"columns": ["molecule", "numeric-readout"],
 "data": [
  ["CC1(C)[C@H](NC(=O)/C(=N\\O[C@@H](COc2ccc3c(c2)CN(C(=N)NOCCN)C3)C(=O)O)c2csc(N)n2)C(=O)N1OS(=O)(=O)O", 0.5],
  ["CC1(C)[C@H](NC(=O)/C(=N\\O[C@@H](COc2ccc3c(c2)CN(C(=N)N(CCCN)CCCN)C3)C(=O)O)c2csc(N)n2)C(=O)N1OS(=O)(=O)O", 0.06],
  ["CC1(C)[C@H](NC(=O)/C(=N\\O[C@@H](COc2ccc3c(c2)CN(/C(=N\\[C@@H]2CCCNC2)N[C@@H]2CCCNC2)C3)C(=O)O)c2csc(N)n2)C(=O)N1OS(=O)(=O)O", 0.125],
  ["CC1(C)[C@H](NC(=O)/C(=N\\O[C@@H](COc2ccc(C(=N)N[C@@H]3CCCNC3)cc2)C(=O)O)c2csc(N)n2)C(=O)N1OS(=O)(=O)O [AIC499, reference compound]", 0.25],
  ["CC1(C)[C@H](NC(=O)/C(=N\\O[C@@H](COc2ccc3c(c2)CN(C(=N)N[C@@H]2CCCNC2)C3)C(=O)O)c2csc(N)n2)C(=O)N1OS(=O)(=O)O", 0.125],
  ["CC1(C)[C@H](NC(=O)/C(=N\\O[C@@H](COc2ccc3c(c2)CN(C(=N)NCCN)C3)C(=O)O)c2csc(N)n2)C(=O)N1OS(=O)(=O)O", 0.125],
  ["C[C@@H](O)[C@H]1C(=O)N2C(C(=O)O)=C(S[C@@H]3CN[C@H](C(=O)N(C)C)C3)[C@H](C)[C@H]12 [Meropenem, reference compound]", 8]
]}

###

- System: Serratia marcescens 14541
- method-notes: MIC, solid dilution method
- Type: cell-based
- condition-summary: Sma 14541, CRE clinical isolate, MHA agar, 37° C., 16-20 hours, read-out: MIC
- Procedure: CRE Acinetobacter baumannii 8476, 6383, a total of 2 strains; CRE Serratia marcescens 14541, a total of 1 strain; all collected in the Department of Infectious Diseases, West China Hospital, Chengdu, Sichuan Province, and kept in our laboratory. […] The minimum inhibitory concentrations of the compounds against the CRE and CSE strains were determined by the solid dilution method, and the results are shown in Tables 3 and 4.
readout-name: MIC

{"columns": ["compound", "readout-name", "result"],
 "data": [
  ["CC1(C)[C@H](NC(=O)/C(=N\\O[C@@H](COc2ccc3c(c2)CN(C(=N)N(CCCN)CCCN)C3)C(=O)O)c2csc(N)n2)C(=O)N1OS(=O)(=O)O", "MIC", "4 µg/mL"],
  ["CC1(C)[C@H](NC(=O)/C(=N\\O[C@@H](COc2ccc(C(=N)N[C@@H]3CCCNC3)cc2)C(=O)O)c2csc(N)n2)C(=O)N1OS(=O)(=O)O [AIC499, reference compound]", "MIC", "> 8 µg/mL"],
  ["CC1(C)[C@H](NC(=O)/C(=N\\O[C@@H](COc2ccc3c(c2)CN(C(=N)N[C@@H]2CCCNC2)C3)C(=O)O)c2csc(N)n2)C(=O)N1OS(=O)(=O)O", "MIC", "> 8 µg/mL"],
  ["CC1(C)[C@H](NC(=O)/C(=N\\O[C@@H](COc2ccc3c(c2)CN(C(=N)NCCN)C3)C(=O)O)c2csc(N)n2)C(=O)N1OS(=O)(=O)O", "MIC", "> 8 µg/mL"],
  ["CC1(C)[C@H](NC(=O)/C(=N\\O[C@@H](COc2ccc3c(c2)CN(/C(=N\\[C@@H]2CCCNC2)N[C@@H]2CCCNC2)C3)C(=O)O)c2csc(N)n2)C(=O)N1OS(=O)(=O)O", "MIC", "> 8 µg/mL"],
  ["CC1(C)[C@H](NC(=O)/C(=N\\O[C@@H](COc2ccc3c(c2)CN(C(=N)NOCCN)C3)C(=O)O)c2csc(N)n2)C(=O)N1OS(=O)(=O)O", "MIC", "> 8 µg/mL"]
]}
